Attribute: APTT (% NPP)
experimentalSystem: human coagulation factor XI (FXI) (human, UniProt P03951 19-625)
assayProcedure: cell-based or functional assay
State just the number; it will be interpreted in % NPP.

Some solved entries appear below for comparison.
composite human mAb VH1/Vκ4 (antibody, V domains shown, Human IgG4 (S241P hinge mutant) heavy chain and human kappa light chain) VH: QVQLVQSGSELKKPGASVKLSCKASGYTFTRYWMHWVKQAHGQGLEWIGNIYPDSDSTNYDEKFRTRATLTADTSTSTAYMHLSSLTSEDSAVYYCTRMGFYAMDYWGQGTSVTVSS VL: DIVMTQSPSSLSASVGDRVTITCKASENVVTYVSWFQQKPGQAPKLLIYGASNRYTGVPDRFSGSGSGTDFTLTISSLQAEDVATYHCGQSYSYPLTFGQGTKLEIKR :: 260
composite human mAb VH3/Vκ2 (antibody, V domains shown, Human IgG4 (S241P hinge mutant) heavy chain and human kappa light chain) VH: QVQLVQSGSELKKPGASVKLSCKASGYTFTRYWMHWVRQAPGQGLEWIGNIYPDSDSTNYDEKFRTRVTLTADTSTSTAYMELSSLRSEDTAVYYCTRMGFYAMDYWGQGTTVTVSS VL: NIVMTQSPSSLSASVGDRVTITCKASENVVTYVSWFQQKPGQAPKLLIYGASNRYTGVPDRFSGSGSATDFTLTISSLQAEDVADYHCGQSYSYPLTFGQGTKLEIKR :: 255

Now for a further binder.
So, composite human mAb VH3/Vκ4 (antibody, V domains shown, Human IgG4 (S241P hinge mutant) heavy chain and human kappa light chain) VH: QVQLVQSGSELKKPGASVKLSCKASGYTFTRYWMHWVRQAPGQGLEWIGNIYPDSDSTNYDEKFRTRVTLTADTSTSTAYMELSSLRSEDTAVYYCTRMGFYAMDYWGQGTTVTVSS VL: DIVMTQSPSSLSASVGDRVTITCKASENVVTYVSWFQQKPGQAPKLLIYGASNRYTGVPDRFSGSGSGTDFTLTISSLQAEDVATYHCGQSYSYPLTFGQGTKLEIKR ? Its APTT (% NPP) was 255

Values compiled from patent US20190106509A1.
